# System: cancer cell lines from the cancer cell line encyclopedia (CCLE)
# assay remarks: Cell line profiling (CLiP) proliferation experiment
# Format: cell-based
# assay context: cell line EM-2 (haematopoietic_and_lymphoid_tissue, blast_phase_chronic_myeloid_leukaemia); read-out: Crossing Point
pIC50: −log10 of the molar value.
quantity: pIC50

Query :: Note pIC50 for the compound shown: CC(C)[C@@]12C[C@@H](O)[C@@](C)(O1)[C@@H]1CC[C@@H](C)[C@H]1[C@@H]2OC(=O)/C=C/c1ccccc1 [Englerin B]
Result :: < 4.52

* * *

# Test system: cancer cell lines from the cancer cell line encyclopedia (CCLE)
# assay remarks: Cell line profiling (CLiP) proliferation experiment
# Type: cell-based
# assay context: cell line GOS-3 (central_nervous_system, astrocytoma); read-out: Crossing Point
quantity: IC50

Query :: Return reported IC50. Input compound: CC(C)[C@@]12C[C@@H](O)[C@@](C)(O1)[C@@H]1CC[C@@H](C)[C@H]1[C@@H]2OC(=O)/C=C/c1ccccc1 [Englerin B]
Result :: > 30 µM

* * *

# Tested on: cancer cell lines from the cancer cell line encyclopedia (CCLE)
# assay remarks: Cell line profiling (CLiP) proliferation experiment
# Format: cell-based
# assay context: PL-21, cell line PL-21; read-out: Crossing Point
# Method: Compound profiling experiment and data analysis was performed as previously described. Data was imported and plotted using the Tibco Spotfire DXP application. Lines were categorized as sensitive, intermediate and refractory as follows: Amax<-40 & Inflection Point <2 ~ Sensitive, Amax>-20 & Inflection Point >10 ~ Refractory, all else were called Intermediate. Cancer Cell line HG-U133 Plus 2 data was processed and normalized as described. […]
quantity: pIC50
Answers are plain numbers, as −log10 of the molar value.

Query :: # return recorded pIC50 for input CC(C)[C@@]12C[C@@H](O)[C@@](C)(O1)[C@@H]1CC[C@@H](C)[C@H]1[C@@H]2OC(=O)/C=C/c1ccccc1 [Englerin B]
Result :: 4.68

* * *

# Test system: cancer cell lines from the cancer cell line encyclopedia (CCLE)
# assay remarks: Cell line profiling (CLiP) proliferation experiment
# Type: cell-based
# assay context: Homo sapiens, SET-2, cell line Set-2, haematopoietic_and_lymphoid_tissue, essential_thrombocythaemia; read-out: Crossing Point
quantity: pIC50
Answers are plain numbers, as −log10 of the molar value.

Query :: // output pIC50; input "CC(C)[C@@]12C[C@@H](O)[C@@](C)(O1)[C@@H]1CC[C@@H](C)[C@H]1[C@@H]2OC(=O)/C=C/c1ccccc1" ; system cancer cell lines from the cancer cell line encyclopedia (CCLE)
Result :: 4.80

* * *

# Tested on: cancer cell lines from the cancer cell line encyclopedia (CCLE)
# assay remarks: Cell line profiling (CLiP) proliferation experiment
# Assay type: cell-based
# assay context: KMS-27, KMS-27 cells; read-out: Inflection Point
quantity: EC50 (µM)
One number for each entry, in µM.

Query :: Output measured EC50 for this item: "CC(C)[C@@]12C[C@@H](O)[C@@](C)(O1)[C@@H]1CC[C@@H](C)[C@H]1[C@@H]2OC(=O)/C=C/c1ccccc1"
Result :: 28.4

* * *

# System: cancer cell lines from the cancer cell line encyclopedia (CCLE)
# assay remarks: Cell line profiling (CLiP) proliferation experiment
# Assay type: cell-based
# assay context: Homo sapiens, A498, cell line A-498; kidney; renal_cell_carcinoma; read-out: Crossing Point
quantity: pIC50
Numbers only, as −log10 of the molar value.

Query :: In one line, give reported pIC50 of the entry CC(C)[C@@]12C[C@@H](O)[C@@](C)(O1)[C@@H]1CC[C@@H](C)[C@H]1[C@@H]2OC(=O)/C=C/c1ccccc1 [Englerin B] .
Result :: 4.90

* * *

# System: cancer cell lines from the cancer cell line encyclopedia (CCLE)
# assay remarks: Cell line profiling (CLiP) proliferation experiment
# Type: cell-based
# assay context: cell line Hs 729; read-out: Crossing Point
pIC50: −log10 of the molar value.
quantity: pIC50

Query :: Identify measured pIC50 associated with CC(C)[C@@]12C[C@@H](O)[C@@](C)(O1)[C@@H]1CC[C@@H](C)[C@H]1[C@@H]2OC(=O)/C=C/c1ccccc1 [Englerin B]
Result :: < 4.52

* * *

# Tested on: cancer cell lines from the cancer cell line encyclopedia (CCLE)
# assay remarks: Cell line profiling (CLiP) proliferation experiment
# Format: cell-based
# assay context: Homo sapiens, OC-314, OC 314 cells; read-out: Crossing Point
quantity: IC50

Query :: Provide IC50, recorded with cancer cell lines from the cancer cell line encyclopedia (CCLE), of "CC(C)[C@@]12C[C@@H](O)[C@@](C)(O1)[C@@H]1CC[C@@H](C)[C@H]1[C@@H]2OC(=O)/C=C/c1ccccc1"
Result :: > 30 µM

* * *

# Tested on: cancer cell lines from the cancer cell line encyclopedia (CCLE)
# assay remarks: Cell line profiling (CLiP) proliferation experiment
# Type: cell-based
# assay context: Homo sapiens, SW1417, SW1417 (large_intestine, adenocarcinoma); read-out: Inflection Point
quantity: EC50 (µM)
Numbers only, in µM.

Query :: Specify measured EC50 for "CC(C)[C@@]12C[C@@H](O)[C@@](C)(O1)[C@@H]1CC[C@@H](C)[C@H]1[C@@H]2OC(=O)/C=C/c1ccccc1" .
Result :: 26.1

* * *

# Tested on: cancer cell lines from the cancer cell line encyclopedia (CCLE)
# assay remarks: Cell line profiling (CLiP) proliferation experiment
# Type: cell-based
# assay context: cell line RERF-LC-AI; read-out: Crossing Point
pIC50: −log10 of the molar value.
quantity: pIC50

Query :: Return the recorded pIC50 value; entry: "CC(C)[C@@]12C[C@@H](O)[C@@](C)(O1)[C@@H]1CC[C@@H](C)[C@H]1[C@@H]2OC(=O)/C=C/c1ccccc1"
Result :: < 4.52

* * *

# Tested on: cancer cell lines from the cancer cell line encyclopedia (CCLE)
# assay remarks: Cell line profiling (CLiP) proliferation experiment
# Assay type: cell-based
# assay context: Homo sapiens, SW1990, SW 1990 (pancreas); read-out: Crossing Point
# Experimental: Compound profiling experiment and data analysis was performed as previously described. Data was imported and plotted using the Tibco Spotfire DXP application. Lines were categorized as sensitive, intermediate and refractory as follows: Amax<-40 & Inflection Point <2 ~ Sensitive, Amax>-20 & Inflection Point >10 ~ Refractory, all else were called Intermediate. Cancer Cell line HG-U133 Plus 2 data was processed and normalized as described. […]
quantity: IC50

Query :: Please tell me the measured IC50 for CC(C)[C@@]12C[C@@H](O)[C@@](C)(O1)[C@@H]1CC[C@@H](C)[C@H]1[C@@H]2OC(=O)/C=C/c1ccccc1 [Englerin B] ; system: cancer cell lines from the cancer cell line encyclopedia (CCLE).
Result :: > 30 µM

* * *

# System: cancer cell lines from the cancer cell line encyclopedia (CCLE)
# assay remarks: Cell line profiling (CLiP) proliferation experiment
# Format: cell-based
# assay context: Homo sapiens, T47D, T-47D (breast, ductal_carcinoma); read-out: Crossing Point
quantity: IC50

Query :: Give the observed IC50 of CC(C)[C@@]12C[C@@H](O)[C@@](C)(O1)[C@@H]1CC[C@@H](C)[C@H]1[C@@H]2OC(=O)/C=C/c1ccccc1 [Englerin B] for cancer cell lines from the cancer cell line encyclopedia (CCLE).
Result :: > 30 µM

* * *

# System: cancer cell lines from the cancer cell line encyclopedia (CCLE)
# assay remarks: Cell line profiling (CLiP) proliferation experiment
# Assay type: cell-based
# assay context: T84 (large_intestine, adenocarcinoma); read-out: Crossing Point
quantity: IC50 (µM)
Answers are plain numbers, in µM.

Query :: Recall and state the measured IC50 for "CC(C)[C@@]12C[C@@H](O)[C@@](C)(O1)[C@@H]1CC[C@@H](C)[C@H]1[C@@H]2OC(=O)/C=C/c1ccccc1" .
Result :: 28.3

* * *

# Tested on: cancer cell lines from the cancer cell line encyclopedia (CCLE)
# assay remarks: Cell line profiling (CLiP) proliferation experiment
# Type: cell-based
# assay context: PaTuÂ 8988s, cell line PA-TU-8988S; read-out: Crossing Point
quantity: IC50 (µM)
Answers are plain numbers, in µM.

Query :: Return IC50 (reported value) for this compound: "CC(C)[C@@]12C[C@@H](O)[C@@](C)(O1)[C@@H]1CC[C@@H](C)[C@H]1[C@@H]2OC(=O)/C=C/c1ccccc1"
Result :: 23.3

* * *

# System: cancer cell lines from the cancer cell line encyclopedia (CCLE)
# assay remarks: Cell line profiling (CLiP) proliferation experiment
# Type: cell-based
# assay context: cell line GR-M, skin; read-out: Crossing Point
# Experimental: Compound profiling experiment and data analysis was performed as previously described. Data was imported and plotted using the Tibco Spotfire DXP application. Lines were categorized as sensitive, intermediate and refractory as follows: Amax<-40 & Inflection Point <2 ~ Sensitive, Amax>-20 & Inflection Point >10 ~ Refractory, all else were called Intermediate. Cancer Cell line HG-U133 Plus 2 data was processed and normalized as described. […]
pIC50: −log10 of the molar value.
quantity: pIC50

Query :: Tell me pIC50 reported for CC(C)[C@@]12C[C@@H](O)[C@@](C)(O1)[C@@H]1CC[C@@H](C)[C@H]1[C@@H]2OC(=O)/C=C/c1ccccc1 [Englerin B]
Result :: < 4.52
